B1: glmS ribozyme (parent)
chain: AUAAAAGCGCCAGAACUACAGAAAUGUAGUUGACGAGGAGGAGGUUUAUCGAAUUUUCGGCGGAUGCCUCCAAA

Variants of: B1
EXPERIMENT_SUMMARY: self-cleavage kobs at 2500 uM GlcN6P; higher = faster cleavage; RNA array
SETUP_CONDITIONS: with glucosamine-6-phosphate
This sample holds only a part of the variants without activity.
EXPERIMENTAL_ENDPOINT: self-cleavage kobs at 2500 uM GlcN6P (s⁻¹)
Kindly answer with a numeric value in s⁻¹, unit omitted.

Consider the reported self-cleavage kobs at 2500 uM GlcN6P for these variants:
> print(dat)
                mutant                 experimental.endpoint  unit.abbreviation  measured
1            A14U C58A  self-cleavage kobs at 2500 uM GlcN6P                s⁻¹  0.000346
2  C10U U47G A52U U69A  self-cleavage kobs at 2500 uM GlcN6P                s⁻¹  7.36e-05
3            C19A U30C  self-cleavage kobs at 2500 uM GlcN6P                s⁻¹  7.18e-05
4            A14U A53U  self-cleavage kobs at 2500 uM GlcN6P                s⁻¹   0.00355
5                 G59U  self-cleavage kobs at 2500 uM GlcN6P                s⁻¹  4.03e-05
6       C11U U56A C70G  self-cleavage kobs at 2500 uM GlcN6P                s⁻¹  0.000145
7            C16U U57C  self-cleavage kobs at 2500 uM GlcN6P                s⁻¹  8.73e-05
8            U31G A48C  self-cleavage kobs at 2500 uM GlcN6P                s⁻¹  5.79e-05

State its self-cleavage kobs at 2500 uM GlcN6P for this variant: G41U C71A
0.000235

Return value of self-cleavage kobs at 2500 uM GlcN6P for input A53U U69G , no commentary.
8.29e-05

Identify self-cleavage kobs at 2500 uM GlcN6P associated with the variant A14U C16A G66A
0.000107

Return value of self-cleavage kobs at 2500 uM GlcN6P for input A14U U31C , no commentary.
0.00229

Quickly give me recorded self-cleavage kobs at 2500 uM GlcN6P for U55C U65G
0.00177

Report self-cleavage kobs at 2500 uM GlcN6P for A53U C67G
0.000628

Give self-cleavage kobs at 2500 uM GlcN6P for U30A G32U
0.000275
